target: RRM tandem R173A (human, UniProt Q07955 1-196, R173A); test: FP; FP, 10 nM RNA, 37 C 30 min then 25 C 10 min; 21-mers: 25 mM KCl, 0.25 M Arg/Glu, 20 mM Tris-HCl pH 7.5, 0.1 mM EDTA, 0.1 mM TCEP, 0.02% Tween 20; 8-mers: 35 mM; details: protein: recombinant; tags: SUMO; label: 5' fluorescein; G-quadruplex (parallel)
Sequence (Q07955 1-196 R173A): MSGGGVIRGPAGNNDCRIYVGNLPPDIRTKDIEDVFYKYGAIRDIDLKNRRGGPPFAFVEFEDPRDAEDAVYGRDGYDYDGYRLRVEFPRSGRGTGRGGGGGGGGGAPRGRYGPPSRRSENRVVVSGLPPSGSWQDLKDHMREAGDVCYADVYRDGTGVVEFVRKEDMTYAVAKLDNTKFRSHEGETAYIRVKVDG
PARAMETER: pKd
Please report pKd as the negative decimal logarithm of the molar concentration, giving only the number.

Q: Give a short answer stating reported pKd for GGGGGCUGGGCGGGGACCGGG (structured_RNA) [ARPC2 GQ] .
Ans: 6.85
